Could you please report measured TGI for the items listed next?
- System: TK-10 renal
- Measurement Description: NCI tumour cell line growth inhibition, 48 h

Exercise: Under TK-10 renal, report TGI for C#Cc1cc2c(N)c(C(=O)c3cc(OC)c(OC)c(OC)c3)[nH]c2cc1OC
Solution: > 100 µM

Exercise: Look up and report measured TGI (TK-10 renal) for the following compound: CC(C)c1cccc(C(C)C)c1OS(=O)(=O)NC(=O)OC(C(F)(F)F)C(F)(F)F
Solution: > 100 µM

Exercise: Please look at CN(C)c1ccc(/C=c2/c3cc([N+](=O)[O-])ccc3n3c2cc(-c2ccccc2)[n+]3C)cc1 and tell me its recorded TGI on TK-10 renal.
Solution: 9.32 µM

Exercise: Specify TGI for CCOC(=O)/C(C#N)=C/Nc1ccc(-c2nc3ccccc3[nH]2)cc1 , system TK-10 renal.
Solution: 54.2 µM

Exercise: Fill in TGI for OC1c2ccccc2C(O)C2OC12 (centres undefined) tested with TK-10 renal.
Solution: > 100 µM

Exercise: Jot down TGI (TK-10 renal) of C1CC[N-]CC1.CC(=N\O)/C(C)=N/O.CC(=N\O)/C(C)=N/O.[CH2-]CCN1CCOCC1.[Co+2] .
Solution: > 100 µM

Exercise: Provide TGI, recorded with TK-10 renal, of CCCCNC(=S)Nc1nc(C(=O)NNC(=O)c2ccccc2)cs1
Solution: 60.6 µM

Exercise: Quote TGI with test system TK-10 renal for Cn1ccnc1C[N-]Cc1nccn1C.O=[N+]([O-])[O-].O=[N+]([O-])[O-].[Cu+2]
Solution: > 100 µM

Exercise: Output reported TGI of the compound CN(C)CCNc1nc2ccccc2c2c(=O)c3ccccc3sc12 on TK-10 renal.
Solution: 6.15 µM

Exercise: Jot down TGI (TK-10 renal) of CCCC1(N)CC(OC)OC(C)C1O (centres undefined) .
Solution: > 100 µM

Exercise: Tell me its TGI on TK-10 renal: C#CCOC(=O)C(N)CCSC (centres undefined)
Solution: > 100 µM

Exercise: Provide TGI, tested on TK-10 renal, for O=C(c1ccccc1)C1C(C(=O)c2ccccc2)C(c2ccccc2)N(c2ccccc2)C1c1ccccc1 (centres undefined) .
Solution: > 100 µM

Exercise: Write TGI of O=C(NN=C1CCCCC1)NN=C1CCCCC1 ; system used: TK-10 renal
Solution: > 100 µM

Exercise: Param request: TGI | system TK-10 renal | item c1ccc2nc(OCCN3CC3)ccc2c1
Solution: 23.1 µM

Exercise: Supply TGI measured with TK-10 renal for O=C(Oc1cccc(Cl)c1)c1cc2cc(CCl)ccc2oc1=O .
Solution: > 100 µM

Exercise: // fetch TGI for CCOC(=O)/N=c1/nc(N(C)C)ss1 ; system: TK-10 renal
Solution: > 100 µM

Exercise: Recall the reported TGI of Nc1nc(N)c(-c2ccccc2)c(CCC(=O)Nc2ccc(Cl)cc2)n1 when tested on TK-10 renal.
Solution: > 100 µM

Exercise: Fill: TGI (TK-10 renal) for this compound O=C1c2ccn(CCCCN3CCC(O)CC3)c2C(=O)c2c1c(O)c1ccccc1c2O
Solution: 3.36 µM

Exercise: Look up and report TGI, with TK-10 renal as system, for COc1cccc(-c2cc(=O)c3cc(Cl)cnc3[nH]2)c1
Solution: > 89.9 µM

Exercise: GET TGI | system: TK-10 renal | item: CC(=O)O[C@H]1CC[C@H]2[C@@H]3CCC(C(C)=O)[C@H](C(=O)O)[C@H]3CC[C@]12C (some centres undefined)
Solution: > 100 µM

Exercise: // fetch TGI for CC1CN=C(c2ccc(COc3ccc(C4=NCC(C)N4)cc3)cc2)N1 (centres undefined) ; system: TK-10 renal
Solution: > 100 µM

Exercise: Provide TK-10 renal TGI reading for Cc1cc(O)cc2c1c(=O)c1ccccc1n2C .
Solution: > 100 µM

Exercise: Please respond with reported TGI (system TK-10 renal) for CCOP(=O)(OCC)C(Nc1ccc(F)cc1)c1ccccc1 (centres undefined) .
Solution: > 100 µM

Exercise: Provide TGI, tested on TK-10 renal, for Nc1c(C(=O)Nc2cccc(Br)c2)sc2nc3c(cc12)C(O)CCC3 (centres undefined) .
Solution: 51.6 µM

Exercise: Provide TGI, system TK-10 renal, entry COc1cc(C2c3cc4c(cc3[C@@H](Nc3ccc(N)cc3)C3COC(=O)[C@H]23)OCO4)cc(OC)c1O (some centres undefined)
Solution: 23.7 µM

Exercise: State TGI on TK-10 renal. Entry: Cc1cccc(NC2=NCCO2)c1Cl
Solution: > 100 µM

Exercise: Name the value of TGI reported for COCCNC1CCC2(SCCS2)c2[nH]c3ccccc3c21 (centres undefined) when tested on TK-10 renal.
Solution: 44.6 µM

Exercise: Fill in TGI for N#C/C(=C\c1ccccc1Br)C(=O)c1ccccc1 tested with TK-10 renal.
Solution: > 100 µM

Exercise: Identify measured TGI obtained with TK-10 renal for O=[As]c1ccc(C(=O)c2ccc(Oc3ccccc3)cc2)cc1 (centres undefined) .
Solution: 0.19 µM

Exercise: System TK-10 renal. Read-out TGI. Item COc1cc(/C=N\O)nc(-c2ccccn2)c1 . Report value.
Solution: > 100 µM

Exercise: System TK-10 renal. Read-out TGI. Item COC[C@@H](Cc1ccc(OC)c(OC)c1)[C@@H](COC)Cc1ccc(OC)c(OC)c1 . Report value.
Solution: > 100 µM

Exercise: Report TGI on TK-10 renal for this entry: O=C(CC(=O)c1ccccc1)c1ccccc1
Solution: 93.7 µM

Exercise: State recorded TGI with TK-10 renal, entry CC1=C(C(=O)Nc2ccccc2)C(c2ccc(C(C)C)cc2)C(C(=O)Nc2ccccc2)=C(C)N1 , no comment.
Solution: > 100 µM

Exercise: Give the observed TGI of NC(N)=NCC(N)C(=O)O (centres undefined) for TK-10 renal.
Solution: > 100 µM

* * *

- System: OVCAR-5 ovarian
- Measurement Description: NCI tumour cell line growth inhibition, 48 h; in the data active = GI50 below about 0.43 µM; inactive = the rest
Entry note: the call must match one of Y for active, N for inactive

Exercise: In this assay, the call recorded for OC(COc1cccc2ccccc12)CN1CCN(c2ccccc2Cl)CC1 (stereo unspecified) was what?
Solution: N

Exercise: Each compound tested received a call. Report the one for CCCCCCNC(=O)Oc1ccc(/C(=C(\C)c2ccccc2)c2ccc(OCCN(CC)CC)cc2)cc1 .
Solution: N

Exercise: How was O=c1c2c3c(sc2n2c(-c4ccc(Br)cc4)nnc2n1Cc1ccccc1)CCCC3 classified in this test?
Solution: N

Exercise: Short answer needed: outcome of this test for CCCn1c(N)c(C(=O)CNc2ccc(I)cc2)c(=O)[nH]c1=O ?
Solution: N

Exercise: In this assay, the call recorded for CCCCOc1ccc(/C=N/Nc2cc(C)nc3ccc(Cl)cc23)cc1 was what?
Solution: N

Exercise: Just curious, what result did CC(=O)C1(O)Cc2c(O)c3c(c(O)c2C(OC2CC(N)C(O)C(C)O2)C1)C(=O)c1ccccc1C3=O (stereo unspecified) get here?
Solution: Y

Exercise: What classification did CCOC(=O)Cc1csc(NC(=O)COC(=O)c2ccc(OC)cc2)n1 end up with in this test?
Solution: N

Exercise: # fetch the recorded call for Cc1cc(S(=O)(=O)Nc2nc3cc(Cl)ccc3o2)c(SCc2ccccc2)cc1Cl here
Solution: N

Exercise: Please let me know the test result on file for CC(=O)N1CCN(CCOc2ccc(C3CCN(C4=Nn5c(nnc5C(F)(F)F)CC4)CC3)cc2)CC1 .
Solution: N

Exercise: For COc1c(N2CCN(Cn3c(O)c(N=NC(=O)c4ccncc4)c4cc(F)ccc43)C(C)C2)c(F)cc2c(=O)c(C(=O)O)cn(C3CC3)c12 (stereo unspecified) , which call appears in the assay record?
Solution: N

Exercise: # outcome recorded in this test, key = O=C(Nc1cc(-c2cccnc2)nc(NCCCN2CCOCC2)n1)c1cc(Br)cc(C(F)(F)F)c1
Solution: N

* * *

- Test system: SK-MEL-28 melanoma
- Measurement Description: NCI tumour cell line growth inhibition, 48 h
Property Measured: TGI

Exercise: Give me measured TGI, please, for this compound: Cc1ccc2c(c1)C(=O)c1c-2n(CCCN=[N+]=[N-])c(=O)c2cc([N+](=O)[O-])ccc12
Solution: > 100 µM

Exercise: Could you please provide reported TGI for CCOC(=O)CC[C@H](N)C(=O)N[C@H](Cc1ccc(N(CCCl)CCCl)cc1)C(=O)OCC ? Thanks!
Solution: > 60.7 µM

Exercise: State, in one line, measured TGI of COC(=O)C1CC(C(=O)OC)c2nc3cc(C)c(C)cc3nc21 (centres undefined)
Solution: > 100 µM

Exercise: Retrieve TGI measured for CC(=O)N(CN1C(=O)CCC1C(=O)O)c1ccccc1Cl (centres undefined) and print it.
Solution: > 100 µM

Exercise: Quickly give me recorded TGI for CC1CN=C(c2ccc(COc3ccc(C4=NCC(C)N4)cc3)cc2)N1 (centres undefined)
Solution: > 100 µM

Exercise: Please give measured TGI of the following entry: CN1CCN(CCOc2ccc(-c3cnc4c(-c5ccc(F)cc5)cnn4c3)cc2)CC1
Solution: 3.62 µM

Exercise: // fetch TGI given entry COC(=O)C(Cc1nc2ccccc2[nH]c1=O)C(=O)C(=O)Nc1cc(C(F)(F)F)ccc1Cl (centres undefined)
Solution: > 100 µM

Exercise: Tell me its TGI given COc1ccc2c(c1)CC[C@@H]1[C@@H]2CC[C@]2(C)C=C(/C=C/C(=O)c3ccccc3)C[C@@H]12 as the entry.
Solution: 31.7 µM

Exercise: Tell me its TGI given CCCCCCCCCCSCC(CO)NC(=O)/C=C/c1c(C)[nH]c(=O)[nH]c1=O (centres undefined) as the entry.
Solution: > 50 µM
